self-cleavage kobs at 2500 uM GlcN6P reference
B1: glmS ribozyme (parent)
chain: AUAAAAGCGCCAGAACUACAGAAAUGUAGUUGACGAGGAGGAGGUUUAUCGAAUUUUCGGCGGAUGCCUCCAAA

Variants of: B1
ASSAY_NOTES: self-cleavage kobs at 2500 uM GlcN6P; higher = faster cleavage; RNA array
REPORTED_CONDITIONS: with glucosamine-6-phosphate
Variants at the floor of the assay were thinned out.
MEASURED_ATTRIBUTE: self-cleavage kobs at 2500 uM GlcN6P

| PRIMARY_SEQUENCE | MEASURED_ATTRIBUTE | RECORDED_VALUE |
| --- | --- | --- |
| AUAAAAGCGCCACAACUACAGAAAUGUAGUUGACGAGGAGGAUGUUUAUCGAAUUUUCGGCGGAUGCCUCCAAA [G13C G43U] | self-cleavage kobs at 2500 uM GlcN6P | < 1e-05 s⁻¹ |
| AUAAAAGGGCCAGAACUACAGAAAUGUAGUUGACGAGGAGGAGGUUUGUCGAAAUUUCGGCGGAUGCCUCCAAA [C8G A48G U54A] | self-cleavage kobs at 2500 uM GlcN6P | < 1e-05 s⁻¹ |
| AUAAAAGCGCCAGAACUACAGAAAUGUAGUUGACGAGGAGGAGGUUUAUCGAAUUUGCGGCGCAUGCCUCCAAA [U57G G63C] | self-cleavage kobs at 2500 uM GlcN6P | < 1e-05 s⁻¹ |
| AUAAAAGCGCCAGAACUACAGAAAUGUAGUUGACGAGGAUGAGGUUUAUCGAAUUUUCGGCGGAGGCCUCCAAA [G40U U65G] | self-cleavage kobs at 2500 uM GlcN6P | 0.00108 s⁻¹ |
| AUAAAAGCGCCAGAACUACAGAAAUGUAGUUGACUAGGAGGAGGUUUAUCGAAUUUUCGGCGGAUGACUCCAAA [G35U C67A] | self-cleavage kobs at 2500 uM GlcN6P | < 1e-05 s⁻¹ |
| AUAAAAGCGCCAGAACUACAGAAAUGUAGUUGACGAGGUUGAGGUUUAUCGAAUUUUCGGCGGAUGCCUUCAAA [A39U G40U C70U] | self-cleavage kobs at 2500 uM GlcN6P | 0.00127 s⁻¹ |
| AUAAAAGCGCAAGCACUACAGAAAUGUAGUUGACGAGGAGGAGAUUUAUCGAAUUUUCGGCGGAUUCCUCCAAA [C11A A14C G44A G66U] | self-cleavage kobs at 2500 uM GlcN6P | < 1e-05 s⁻¹ |
| AUAAAAGCGCCAGAACUACAGAAAUGUAGUUGACGCGGAGGAGGUUUAUCGAAUUUUCUUCGGAUGCCUGCAAA [A36C G59U G60U C70G] | self-cleavage kobs at 2500 uM GlcN6P | < 1e-05 s⁻¹ |
| AUAAACGCGCCAGAGCUACAGAAAUGUAGCUGACGAGGAGGAGGUUUAUCGAAUUUUCGGCGGAUGCCUCCAAA [A6C A15G U30C] | self-cleavage kobs at 2500 uM GlcN6P | 2.76e-05 s⁻¹ |
| AUAAAAGCCCCAGAACUACAGAAAUGUACUUGACGAGGAGGAGGUUUAUCGUAUUUUCGGCGGAUGCCUUCAAA [G9C G29C A52U C70U] | self-cleavage kobs at 2500 uM GlcN6P | < 1e-05 s⁻¹ |
| AUAAAAGCGCCAGAACUACAGAAAUGUAAUAGACGAGCAGGAGGUUUAUCGAAUUUUCGGCGGAUGCCUCCAAA [G29A U31A G38C] | self-cleavage kobs at 2500 uM GlcN6P | < 1e-05 s⁻¹ |
